biological target: hCA II (Homo sapiens); construct: gene CA2; cytosolic isoform; one molecule in the asymmetric unit; assay: stopped-flow CO2 hydration assay; format: biochemical; conditions: read-out: K I (nM)∗ / hCA II
PROPERTY_MEASURED: Ki (nM)

Illustrative cases are given below, each with its answer.
>  <MOLECULE>
CC#CCOc1ccc(CNS(N)(=O)=O)cc1

>  <Ki [nM]>
9.5

$$$$
>  <MOLECULE>
Cc1cc(COc2ccc(CNS(N)(=O)=O)cc2)c2ccccc2n1

>  <Ki [nM]>
43.3

$$$$
>  <MOLECULE>
Cc1cc(COc2ccc(C=NS(N)(=O)=O)cc2)c2ccccc2n1

>  <Ki [nM]>
188

$$$$
>  <MOLECULE>
COc1ccc(CNS(N)(=O)=O)cc1 [compound 12, N-(4-Methoxybenzyl)sulfuric Diamide]

>  <Ki [nM]>
134

$$$$

A = CC#CCOc1ccc(C=NS(N)(=O)=O)cc1
B = NS(=O)(=O)NCc1ccc(O)cc1 [compound 11, N-(4-Hydroxybenzyl)sulfuric Diamide]
Q. Ki comparison. Which is larger, A or B ? In your reply, give the label of the chosen option.
A. B

###

biological target: hCA I (Homo sapiens, UniProt P00915); construct: gene CA1; cytosolic isoform; assay: stopped-flow CO2 hydration assay; assay type: biochemical; details: read-out: K I (nM)∗ / hCA I
Sequence (P00915 2-261): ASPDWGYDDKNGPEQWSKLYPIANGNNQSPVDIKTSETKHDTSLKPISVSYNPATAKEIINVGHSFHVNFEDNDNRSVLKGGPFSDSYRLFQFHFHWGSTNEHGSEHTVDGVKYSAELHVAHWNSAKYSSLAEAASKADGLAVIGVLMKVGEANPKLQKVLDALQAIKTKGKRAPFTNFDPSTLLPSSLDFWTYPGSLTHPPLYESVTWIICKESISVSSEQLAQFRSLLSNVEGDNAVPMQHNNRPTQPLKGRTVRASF
PROPERTY_MEASURED: Ki (nM)

>  <MOLECULE>
Cc1cc(COc2ccc(C=NS(N)(=O)=O)cc2)c2ccccc2n1 [compound 15]

>  <UNITS_SYMBOL>
nM

>  <Ki>
1650

$$$$
>  <MOLECULE>
CC#CCOc1ccc(C=NS(N)(=O)=O)cc1 [compound 13]

>  <UNITS_SYMBOL>
nM

>  <Ki>
1940

$$$$
>  <MOLECULE>
NS(=O)(=O)NCc1ccc(O)cc1 [compound 11, N-(4-Hydroxybenzyl)sulfuric Diamide]

>  <UNITS_SYMBOL>
nM

>  <Ki>
2180

$$$$
>  <MOLECULE>
Cc1cc(COc2ccc(CNS(N)(=O)=O)cc2)c2ccccc2n1 [compound 16]

>  <UNITS_SYMBOL>
nM

>  <Ki>
1440

$$$$

1 = CC#CCOc1ccc(CNS(N)(=O)=O)cc1 [compound 14]
2 = COc1ccc(CNS(N)(=O)=O)cc1 [compound 12, N-(4-Methoxybenzyl)sulfuric Diamide]
Q. Select one: 1 or 2 . Criterion: greater recorded Ki. Respond using the label that marks the chosen record.
A. 2

###

molecular target: hCA XII (Homo sapiens); construct: gene CA12; transmembrane isoform; assay: stopped-flow CO2 hydration assay; type: biochemical; conditions: read-out: K I (nM)∗ / hCA XII
Sequence (O43570 25-354): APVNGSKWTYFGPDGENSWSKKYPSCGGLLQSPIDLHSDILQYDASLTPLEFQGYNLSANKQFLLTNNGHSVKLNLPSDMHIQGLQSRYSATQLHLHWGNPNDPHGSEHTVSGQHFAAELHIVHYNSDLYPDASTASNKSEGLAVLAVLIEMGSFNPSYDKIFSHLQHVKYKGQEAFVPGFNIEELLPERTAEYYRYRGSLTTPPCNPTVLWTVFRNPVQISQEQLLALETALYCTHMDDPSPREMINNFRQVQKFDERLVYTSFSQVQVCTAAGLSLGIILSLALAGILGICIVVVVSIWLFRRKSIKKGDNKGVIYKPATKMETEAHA
PROPERTY_MEASURED: Ki (nM)

Consider the worked cases shown below.
>  <MOLECULE>
COc1ccc(CNS(N)(=O)=O)cc1 [compound 12, N-(4-Methoxybenzyl)sulfuric Diamide]

>  <MEASURED_VALUE>
6.6

$$$$
>  <MOLECULE>
Cc1cc(COc2ccc(CNS(N)(=O)=O)cc2)c2ccccc2n1

>  <MEASURED_VALUE>
6.6

$$$$

I = NS(=O)(=O)NCc1ccc(O)cc1 [compound 11, N-(4-Hydroxybenzyl)sulfuric Diamide]
II = CC#CCOc1ccc(C=NS(N)(=O)=O)cc1
Q. Form: Entry with minimum Ki (choose one): I / II The response must carry the label of the picked entry.
A. I
(I: 5.8 nM, II: 8.4 nM)

// provenance: paper PMC4167230
